Source: patent US20230293539A1

- experimentalProtocol: Mouse PK (oral)
- Format: in vivo, C57/B16 mice
- assaySetup: C57/B16, 10 mg/kg, 10 mpk, plasma
We begin with a simple list: items and their reported Cmax.

{"compound": "C[C@H]1CN(c2cc(F)c(-c3cnc(N4CCOCC4)nc3)cc2Nc2ncnc(Cl)c2N)CCN1C [DDO-2213_020]", "Cmax [nM]": 1670}
{"compound": "Cc1c(F)c(N)cc(C(=O)Nc2cc(-n3cc(C(=O)N4CCN(C)CC4)nn3)c(F)cc2N2C[C@@H](C)N(C)[C@@H](C)C2)c1Cl [HYBI-084]", "Cmax [nM]": 359}
{"compound": "CCN(CC)C(=O)c1cn(-c2cc(NC(=O)c3cc(N)c(F)c(C)c3Cl)c(N3C[C@@H](C)N(C)[C@@H](C)C3)cc2F)nn1 [HYBI-082]", "Cmax [nM]": 1670}
{"compound": "C[C@@H]1CN(c2ncc(-c3cc(Nc4ncnc(Cl)c4N)c(N4CCN(C)[C@@H](C)C4)cc3F)cn2)C[C@H](C)O1 [DDO-2213_023]", "Cmax [nM]": 1320}

* * *

- experimentalProtocol: PK profile of HBI-2375 in plasma, brain and CSF in SD rats
- Assay type: in vivo
- assaySetup: Sprague-Dawley, rat; SD rats, single PO 40 mg/kg, CSF, male
metricName: AUC(0-t) (ng·h/mL)

{"querySmiles": "Cc1c(F)c(N)cc(C(=O)Nc2cc(-n3cc(C(=O)N4CCN(C)CC4)nn3)c(F)cc2N2C[C@@H](C)N(C)[C@@H](C)C2)c1Cl", "metricName": "AUC(0-t)", "endpointUnit": "ng·h/mL", "measuredValue": 18.6}

* * *

- experimentalProtocol: PK profile of HBI-2375 in plasma, brain and CSF in SD rats
- Type: in vivo
- assaySetup: Sprague-Dawley, rat; SD rats, single PO 40 mg/kg, plasma, male

{"querySmiles": "Cc1c(F)c(N)cc(C(=O)Nc2cc(-n3cc(C(=O)N4CCN(C)CC4)nn3)c(F)cc2N2C[C@@H](C)N(C)[C@@H](C)C2)c1Cl", "endpointUnit": "h", "MRT last": 4.5}

* * *

- testedSystem: TEAD4 (Homo sapiens, UniProt Q15561)
- Sequence (Q15561 whole entry, species assumed): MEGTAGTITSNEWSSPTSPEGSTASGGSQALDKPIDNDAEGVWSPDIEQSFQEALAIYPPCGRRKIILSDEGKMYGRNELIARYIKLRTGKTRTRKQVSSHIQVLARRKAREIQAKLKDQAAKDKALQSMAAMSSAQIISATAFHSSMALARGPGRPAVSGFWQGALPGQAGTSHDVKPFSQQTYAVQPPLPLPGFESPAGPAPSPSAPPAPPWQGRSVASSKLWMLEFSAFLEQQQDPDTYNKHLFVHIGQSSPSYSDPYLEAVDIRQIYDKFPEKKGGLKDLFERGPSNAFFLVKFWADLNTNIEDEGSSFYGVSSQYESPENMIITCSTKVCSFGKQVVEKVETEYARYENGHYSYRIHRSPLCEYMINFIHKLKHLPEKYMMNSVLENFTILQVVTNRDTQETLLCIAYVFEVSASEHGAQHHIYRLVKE
pIC50: −log10 of the molar value.

{"querySmiles": "Cc1c(F)c(N)cc(C(=O)Nc2cc(-n3cc(C(=O)N4CCN(C)CC4)nn3)c(F)cc2N2C[C@@H](C)N(C)[C@@H](C)C2)c1Cl", "pIC50": "< 6.00"}

* * *

- experimentalProtocol: PK profile of HBI-2375 in plasma, brain and CSF in SD rats
- Format: in vivo
- assaySetup: female, Sprague-Dawley, rat; SD rats, single PO 40 mg/kg, brain, females
- Protocol: EXAMPLE 3: PK profile of HBI-2375 (compound of Formula (IIIb) (HYBI-084) in plasma, brain, and cerebrospinal fluid (CSF) in SD rats: This study was conducted in accordance with the Study Protocol and Pharmaron (Ningbo) TSP's Standard Operating Procedures (SOPs) following all regulatory protocols. This study was conducted under non-GLP environment. The maximal concentrations of HBI-2375 in CSF for males and females were at 1 hr post-dose. […]
metricName: AUC(0-t) (ng·h/mL)

{"querySmiles": "Cc1c(F)c(N)cc(C(=O)Nc2cc(-n3cc(C(=O)N4CCN(C)CC4)nn3)c(F)cc2N2C[C@@H](C)N(C)[C@@H](C)C2)c1Cl", "metricName": "AUC(0-t)", "endpointUnit": "ng·h/mL", "measuredValue": 3390}
